target: UniProtKB P07379; assay: Continuous spectrophotometric PEPCK inhibition assay coupled to malate dehydrogenase (preliminary screen, inhibition patterns, Dixon plots); conditions: from Dixon plots using two PEP concentrations; listed as Maleate (5)
Sequence (P07379 whole entry): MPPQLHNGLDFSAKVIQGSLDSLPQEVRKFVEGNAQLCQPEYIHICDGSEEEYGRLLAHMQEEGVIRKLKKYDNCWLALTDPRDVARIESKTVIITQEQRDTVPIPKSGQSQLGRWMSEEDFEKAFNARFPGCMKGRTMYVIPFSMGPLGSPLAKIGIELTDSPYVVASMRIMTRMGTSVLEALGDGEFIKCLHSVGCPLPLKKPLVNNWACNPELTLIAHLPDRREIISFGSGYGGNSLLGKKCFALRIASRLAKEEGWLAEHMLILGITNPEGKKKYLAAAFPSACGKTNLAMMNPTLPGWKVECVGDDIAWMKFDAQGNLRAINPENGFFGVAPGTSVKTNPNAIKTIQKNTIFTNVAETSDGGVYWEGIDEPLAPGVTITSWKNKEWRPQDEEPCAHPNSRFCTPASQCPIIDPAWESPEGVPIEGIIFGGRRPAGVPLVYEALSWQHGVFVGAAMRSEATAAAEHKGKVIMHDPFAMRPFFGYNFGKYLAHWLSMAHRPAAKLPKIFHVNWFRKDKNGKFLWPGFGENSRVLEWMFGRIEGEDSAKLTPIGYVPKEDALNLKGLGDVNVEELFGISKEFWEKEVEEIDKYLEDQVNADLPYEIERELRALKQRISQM
Counter-ions that a name gives are not always drawn.
readoutName: Ki

compound	observed
O=C(O)/C=C\C(=O)O [Compound 5, Maleate]	2 mM

----------
target: UniProtKB P07379; assay: Continuous spectrophotometric PEPCK inhibition assay coupled to malate dehydrogenase (preliminary screen, inhibition patterns, Dixon plots); conditions: against PEP;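 note: PEPCK activity followed continuously via malate dehydrogenase coupling, where OAA reduction consumes NADH, seen as falling absorbance at 340 nm, run at 35 °C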
readoutName: Inhibition of PEPCK (in words)

molecule	readoutName	observed
C=C(CP(=O)(O)O)C(=O)O [Compound 15, 2-(Phosphonomethyl)acrylate]	Inhibition of PEPCK (in words)	noninhibitory
O=C(O)[C@@H](CO)OP(=O)(O)O [Compound 14, 2-D-Phosphoglycerate]	Inhibition of PEPCK (in words)	noninhibitory
O=C(O)CP(=O)(O)O [Compound 11, Phosphonoacetate]	Inhibition of PEPCK (in words)	noninhibitory
